FYI, the data here is from ChEMBL document CHEMBL1130143.

- Target Or System: Mu-type opioid receptor (Rattus norvegicus)
- Sequence (P33535 whole entry): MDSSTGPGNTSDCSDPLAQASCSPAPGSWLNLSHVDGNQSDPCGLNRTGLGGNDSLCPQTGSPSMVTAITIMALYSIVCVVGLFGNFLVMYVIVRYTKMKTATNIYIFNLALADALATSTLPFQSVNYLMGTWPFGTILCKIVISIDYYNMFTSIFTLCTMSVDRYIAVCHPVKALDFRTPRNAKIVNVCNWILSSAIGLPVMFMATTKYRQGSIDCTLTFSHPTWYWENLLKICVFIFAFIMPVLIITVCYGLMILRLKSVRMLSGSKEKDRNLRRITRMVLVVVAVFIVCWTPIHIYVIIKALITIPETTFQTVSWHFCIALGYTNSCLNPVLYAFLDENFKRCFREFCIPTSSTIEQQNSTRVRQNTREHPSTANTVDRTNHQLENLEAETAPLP
- Experiment Notes: Binding affinity for Opioid receptor mu 1 by the inhibition of binding of [3H]DAMGO in rat brain membranes.
pIC50: −log10 of the molar value.

Compound Structure	pIC50
C=CCN1C[C@H](C)N([C@@H](c2ccc(C(=O)N3CCCC3)cc2)c2cccc(OC)c2)C[C@H]1C	< 5.60
C=CCN1C[C@H](C)N([C@H](c2ccc(C(N)=O)cc2)c2cccc(OC)c2)C[C@H]1C	< 5.60
C=CCN1C[C@H](C)N([C@H](c2ccc(C(=O)N3CCCCC3)cc2)c2cccc(OC)c2)C[C@H]1C	< 5.60
C=CCN1C[C@H](C)N([C@H](c2ccc(C(=O)NCC)cc2)c2cccc(OC)c2)C[C@H]1C	6.62
C=CCN1C[C@H](C)N([C@H](c2ccc(C(=O)N(C)C)cc2)c2cccc(OC)c2)C[C@H]1C	5.49
C=CCN1C[C@H](C)N([C@H](c2ccc(C(=O)N3CCCC3)cc2)c2cccc(OC)c2)C[C@H]1C	< 5.60
C=CCN1C[C@H](C)N([C@@H](c2ccc(C(=O)N(CCC)CCC)cc2)c2cccc(OC)c2)C[C@H]1C	5.36
C=CCN1C[C@H](C)N([C@H](c2ccc(C(=O)N(C(C)C)C(C)C)cc2)c2cccc(OC)c2)C[C@H]1C	< 5.60
